test: Cytotoxicity in normal cell line (MTT); type: cell-based, human; settings: human, Hs27 fibroblast cells; Hs27; peptide 4 μM; 24 hours; MTT; read-out: Cell survival ability
Where a SMILES comes first, the peptide text is derived from it.
measurementLabel: viability at 24 h, 4 µM (%)
Number in %, nothing else.

Quote viability at 24 h, 4 µM reported for CC[C@H](C)[C@H](NC(=O)[C@H](CCCNC(=N)N)NC(=O)[C@H](CCC(N)=O)NC(=O)[C@@H](NC(=O)[C@@H](NC(=O)[C@H](CCCNC(=N)N)NC(=O)[C@H](CCCCN)NC(=O)[C@H](Cc1ccccc1)NC(=O)[C@H](CCCCN)NC(=O)[C@@H](N)CCCCN)[C@@H](C)CC)C(C)C)C(=O)N[C@@H](CCCCN)C(=O)N[C@@H](CC(=O)O)C(=O)N[C@@H](Cc1ccccc1)C(=O)N[C@@H](CC(C)C)C(=O)N[C@@H](CCCNC(=N)N)C(=O)N[C@@H](CC(N)=O)C(N)=O [LL37-2, KKFKRIVQRIKDFLRN-NH2] (H-KKFKRIVQRIKDFLRN-NH2) please.
91

---

test: Cytotoxicity in normal cell line (MTT); format: cell-based, human; conditions: human, HaCaT keratinocyte cells
Where a SMILES comes first, the peptide text is derived from it.
measurementLabel: viability at 24 h, 2 µM (%)
Numbers only here, please. The scale is %.

Note viability at 24 h, 2 µM for the compound shown: CC[C@H](C)[C@H](NC(=O)[C@H](CCCNC(=N)N)NC(=O)[C@H](CCC(N)=O)NC(=O)[C@@H](NC(=O)[C@@H](NC(=O)[C@H](CCCNC(=N)N)NC(=O)[C@H](CCCCN)NC(=O)[C@H](Cc1ccccc1)NC(=O)[C@H](CCC(=O)O)NC(=O)[C@@H](N)CCCCN)[C@@H](C)CC)C(C)C)C(=O)N[C@@H](CCCCN)C(=O)N[C@@H](CC(=O)O)C(=O)N[C@@H](Cc1ccccc1)C(=O)N[C@@H](CC(C)C)C(=O)N[C@@H](CCCNC(=N)N)C(=O)N[C@@H](CC(N)=O)C(N)=O [LL37-1, KEFKRIVQRIKDFLRN-NH2] (H-KEFKRIVQRIKDFLRN-NH2)
98

Origin of values: patent US11452758B2
